# measuredTarget: Concanavalin-A (Canavalia ensiformis)
# protocolDescription: ConA small-molecule binders, primary screen, artefact control for SMM control protein annotation, biochemical, small-molecule microarray, Alexa647 label, 635 nm (AID 1127);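 further: z combines 667 nm emission intensity with signal-to-noise across three replicate slides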
# setupConditions: ConA-A647 binding fluorescence, higher = more signal
# reported composite z-score; entries follow
observedProperty: composite z-score

compound=C=CCOC(=O)[C@@H]1[C@H]2C(=O)O[C@H](c3ccccc3)[C@H](c3ccccc3)N2[C@H](c2ccc(OCCOC(=O)[C@@H]3C[C@@H]4C(=O)N[C@@H](Cc5ccccc5)C(=O)N4[C@@H]3c3cccc(OCCO)c3)cc2)[C@@]12C(=O)Nc1ccc(I)cc12 measured=0.795
compound=CC(C)NC(=O)[C@@H]1c2ccccc2C(=O)N(Cc2ccccc2Cl)[C@H]1c1ccc(CO)cc1 measured=-0.0903
compound="CC(C)c1ccc(NN2C(C(O)c3cccc(O)c3)C=CC3C(=O)N(c4ccccc4)C(=O)C32)cc1 (centres undefined)" measured=1.14
compound=CC(C)N1C(=O)c2ccccc2[C@@H](C(=O)NCCCN(C)C)[C@@H]1c1ccc(CO)cc1 measured=0.289
compound="CC(=O)C1=CCC(c2ccccc2)N(S(=O)(=O)c2ccc(C)cc2)C1 (centres undefined)" measured=0.789
compound="[N-]=[N+]=NCc1ccccc1C[C@]1(C(=O)NCC(O)CO)N=C(c2ccc(OCCCO)cc2)O[C@H]1c1ccccc1N=[N+]=[N-] (some centres undefined)" measured=0.565
compound=C=C(CCCC)/C(=C/C[C@H](OC(C)=O)c1ccc(CO)o1)c1cnc2ccccc2c1 measured=0.931
compound=[N-]=[N+]=NCc1ccccc1C[C@]1(C(=O)NCCN2CCOCC2)N=C(c2ccc(OCCCO)cc2)O[C@H]1c1ccccc1N=[N+]=[N-] measured=1.16
compound=C=C[C@@H](COC(C)=O)N(Cc1ccc([N+](=O)[O-])cc1)S(=O)(=O)c1ccc(Br)cc1 measured=1.11
compound="CCCCC(O)C1C=CC2C(=O)N(C3CCCCC3)C(=O)C2N1Nc1ccc(OC)cc1 (centres undefined)" measured=0.8
compound=CCCCC=C[C@@H](NC(=O)c1ccco1)c1ccccc1 measured=1.01
compound=COc1ccc(CCNC(=O)[C@@H]2c3ccccc3C(=O)N(Cc3ccc(OC(F)(F)F)cc3)[C@H]2c2ccc(CO)cc2)cc1 measured=0.485
compound=COc1ccc([Si](C)(C)[C@H]2[C@H](CCn3cc([C@H](O)c4ccccc4)nn3)O[C@@]3(C(=O)N(Cc4cccc(N5CCC5=O)c4)c4ccccc43)[C@@H]2C)cc1 measured=0.47
compound="C=CC(COC(C)=O)NS(=O)(=O)c1ccc(Br)cc1 (centres undefined)" measured=0.682
compound=O=C1C=CC(=O)[C@@H]2CC(COc3ccccc3)=C3[C@@H](CCc4ccccc4)OB(O)C[C@@H]3[C@H]12 measured=0.238
compound=COc1ccc([Si](C)(C)[C@@H]2[C@@H](CCn3cc([C@H](O)c4ccccc4)nn3)O[C@]3(C(=O)N(Cc4ccc(N5C(=O)c6cccc7cccc5c67)cc4)c4ccccc43)[C@H]2C)cc1 measured=-0.13
compound=C[C@]1(C(=O)NCc2ccccc2)c2ccccc2C(=O)N(Cc2cc(F)cc(C(F)(F)F)c2)[C@H]1c1ccc(CO)cc1 measured=-0.871
compound=CC(=O)NCCCC[C@@H]1NC(=O)[C@@H]2C[C@H](C(=O)NCCCCN(C)C)[C@H](c3ccc(O)cc3)N2C1=O measured=-0.612
compound=COCC(=C=CC[C@H](O)c1ccc(OCCO)cc1)C[C@H](O)c1cc(Cl)cc(Cl)c1O measured=0.661
compound="O=C1C2C=CC(C(O)c3ccc(B(O)O)cc3)N(Nc3ccccc3)C2C(=O)N1c1ccccc1 (centres undefined)" measured=-0.874
compound=COc1cc(CO)ccc1OC(C)=O measured=0.687
compound=NCCCCCNC(=O)[C@H]1C[C@H]2C(=O)NCC(=O)N2[C@H]1c1cccc(OCCO)c1 measured=1.16
compound=Cc1ccc(S[C@]2(C(=O)NCCN3CCOCC3)CC(=O)N(Cc3cc(C(F)(F)F)cc(C(F)(F)F)c3)[C@@H]2c2ccc(CO)cc2I)cc1 measured=-0.13
compound="C=CCC(OC(C)=O)[C@@H]1[C@@H](N(Cc2ccc(-c3cccc(C(F)(F)F)c3)o2)C(=O)c2ccc(C)cc2)c2cc(OCCCO)ccc2N1C(=O)c1ccc(-c2ccccc2)cc1 (some centres undefined)" measured=0.854
compound=COCCOC(=O)N1C(=O)[C@@]2(c3cc(C#CCNC(N)=O)ccc31)[C@H](c1ccc(O)cc1)N1[C@H](c3ccccc3)[C@H](c3ccccc3)OC(=O)[C@H]1[C@@H]2C(=O)Nc1nc2ccccc2s1 measured=1.09
compound=COC(=O)[C@@]1(Cc2ccc(F)cc2)[C@H]2c3cc(C(=O)N4CCCC4)n(Cc4cccc5ccccc45)c3C[C@H]2CN1C(=O)c1ccccc1 measured=0.405
compound=COc1ccc([Si](C)(C)[C@H]2[C@H](CCn3cc(CCO)nn3)O[C@@]3(C(=O)N(Cc4ccc(N5CCOC5=O)cc4)c4ccccc43)[C@@H]2C)cc1 measured=0.702
compound=N[C@@H](Cc1ccccc1)Cn1cc(-c2ccccc2)nn1 measured=-0.109
compound=COCCOC(=O)N1C(=O)[C@@]2(c3cc(C#CCC(C(=O)OC)C(=O)OC)ccc31)[C@H](c1ccccc1OCCO)N1[C@H](c3ccccc3)[C@H](c3ccccc3)OC(=O)[C@H]1[C@@H]2C(N)=O measured=1.07
